tested on: Miapaca-2 cells; experiment: MiaPaca-2 Combination Cell proliferation Assay (1) with cobimetinib; format: cell-based; conditions: MiaPaca-2 cell proliferation, read-out: MiaPaca-2 Combo (1) IC50
metric: IC50

For the molecule shown here, "CNC(=O)c1cc(-c2cncc(-c3cc(NC(=O)c4ccnc(C(C)(C)C#N)c4)ccc3C)n2)ccn1" , give the reported IC50.
≤ 100 nM

Next record, please: "Cc1ccc(NC(=O)c2ccnc(C(F)(F)F)c2)cc1-c1ccnc(-c2ccnc(NC(=O)CC#N)c2)c1"
100 to 500 nM

Next record, please: "COc1ccc(NC(=O)c2ccnc(C(C)(C)C#N)c2)cc1-c1cccc(-c2cc(NC(=O)C3CC3)ncn2)c1"
100 to 500 nM

Next record, please: "CC(=O)Nc1cc(-c2ccnc(-c3cc(NC(=O)c4ccnc(C(C)(C)C#N)c4)ccc3C)n2)ccn1"
≤ 100 nM

Next record, please: "CC(=O)Nc1cc(-c2cc(-c3cc(NC(=O)c4ccnc(C(F)(F)F)c4)c(F)cc3C)ccn2)ccn1"
≤ 100 nM

Next record, please: "COC(=O)Nc1cc(-c2nccc(-c3cc(NC(=O)c4ccnc(C(C)(C)C#N)c4)c(F)cc3C)n2)ccn1"
≤ 100 nM

Next record, please: "CNC(=O)c1cc(-c2cc(-c3cc(NC(=O)c4ccnc(C(F)F)c4)ccc3C)ccn2)ccn1"
≤ 100 nM
